For each of the compounds below, state its IC50.
# Test system: 349418-098-R-PDC complex spheroid viability;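 further: spheroids exposed to compound for seven days before viability readout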
# Protocol Text: Anticancer human tumor 349418-098-R-PDC patient-derived lung adenocarcinoma cell line growth inhibition [RAS]
# Measurement Setup: curve of compound

The compound listed as `O=C(c1ccc(F)c(F)c1Nc1ccc(I)cc1F)N1CC(O)([C@@H]2CCCCN2)C1` has a reported IC50 of < 3.16 nM

Recorded result, NC1c2ccccc2OC12CCN(c1cnc3c(N4CCCc5ncccc54)n[nH]c3n1)CC2 (stereo not drawn) , IC50: > 10000 nM

Notebook: `C[C@@H](NC(=O)c1ncnc(N)c1Cl)c1ncc(C(=O)Nc2cc(C(F)(F)F)c(Cl)cn2)s1` , IC50 read as 2.13 µM [middle of 4 runs]

Measured IC50 of CC1(O)CCCC1n1c(=O)c(C(F)F)cc2cnc(NC3CCN(S(C)(=O)=O)CC3)nc21 (stereo not drawn) : 87.8 nM [middle of 4 runs]

Field IC50 (entry Nc1ccn(C2OC(CO)C(O)C2(F)F)c(=O)n1 (stereo not drawn) ) reads < 3.16 nM

get_value(item= CC(=O)OC12COC1CC(O)C1(C)C(=O)C(O)C3=C(C)C(OC(=O)C(O)C(NC(=O)OC(C)(C)C)c4ccccc4)CC(O)(C(OC(=O)c4ccccc4)C21)C3(C)C (stereo not drawn) , readout=IC50) returns < 31.6 nM

// IC50 value for C=CC(=O)N1CCN(c2nc(OCC3CCCN3C)nc3c(F)c(-c4nc(N)cc(C)c4C(F)(F)F)c(Cl)cc23)C(C)C1 (stereo not drawn) : > 1000 nM

// IC50 value for `CC(C)n1nc(-c2ccc3oc(N)nc3c2)c2c(N)ncnc21` : 3.6 nM [middle of 4 runs]
